System: T1, human common cytokine receptor γ-chain (IL-2Rγ) (human, UniProt P31785 23-262, limits assumed)
T1 construct: Recombinant human IL-2Rγ protein, coated (ELISA) or amine-coupled to a CM5 chip (SPR); also called hu IL-2R; CD132
T1 sequence: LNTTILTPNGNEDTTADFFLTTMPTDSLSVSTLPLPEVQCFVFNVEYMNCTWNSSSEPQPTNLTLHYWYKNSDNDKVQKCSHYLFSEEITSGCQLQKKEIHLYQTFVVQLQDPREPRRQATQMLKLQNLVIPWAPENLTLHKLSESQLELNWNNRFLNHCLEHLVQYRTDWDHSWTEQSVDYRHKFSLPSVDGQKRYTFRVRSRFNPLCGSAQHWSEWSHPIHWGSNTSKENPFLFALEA
Protocol Description: P.E. off-rate SPR
Give measured koff for each item. Keep answers brief.

Req: Would you kindly share the measured koff for FJ1427_P035MP04F12 (VHH, tested as periplasmic extract; also called Clone nr) VHH: QVQLQESGGGWVQVGESLRLSCVPSGRTFVSGIMGWFRQAPGKEREFVARIILNNNSTRYTDSVKGRFTISRDSAKNTMYLQMNTLRPEDTAVYYCAARDRYGSGNSLSPSAYDYWGQGTQVTVSS ?
Resp: 0.00714 s⁻¹

Req: Same lookup for FJ1427_P035MP07D09 (VHH, tested as periplasmic extract; also called Clone nr) VHH: EVQLVESGGGLVQAGGSLRLSCAASGRTLSRYAMGWFRQAPGKEREFVTANSWGGDTYYADSVQGRFTFSRDNAKNTVYLQMNSLQPEDTAVYYCAAAPTSFATTAYSSSNSYAYWGQGTQVTVSS , please.
Resp: 0.00447 s⁻¹

Req: And for FJ1427_P035MP07C03 (VHH, tested as periplasmic extract; also called Clone nr) VHH: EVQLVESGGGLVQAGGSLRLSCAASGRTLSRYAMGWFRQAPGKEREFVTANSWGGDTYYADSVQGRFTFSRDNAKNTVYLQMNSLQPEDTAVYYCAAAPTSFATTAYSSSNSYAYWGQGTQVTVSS ?
Resp: 0.00353 s⁻¹

Req: Lookup FJ1427_P035MP07H02 (VHH, tested as periplasmic extract; also called Clone nr; 592) VHH: QVQLVESGGGLVQAGGSLRLSCAASGRALSRLAMGWFRQAPGKEREFVVASSWGDDTFYADSVKGRFTFSRDNAKNTVYLQMNSLQPGDTAVYYCAAAPTSFATTAYSSSNSYAYWGQGTQVTVSS
Resp: 0.00188 s⁻¹
